Record type: IC50 measurement. Applies to: RNA-directed RNA polymerase (Hepacivirus hominis)
reported-metric: IC50 (nM)

1. C#C[C@]1(O)[C@H](n2cnc3c(=O)[nH]c(N)nc32)O[C@](F)(COP(=O)(O)OP(=O)(O)OP(=O)(O)O)[C@H]1O
2. C[C@@]1(Cl)[C@H](O)[C@@H](COP(=O)(O)OP(=O)(O)OP(=O)(O)O)O[C@H]1n1cnc2c(=O)[nH]c(N)nc21
Could you kindly indicate whether 1 or 2 has the higher IC50 value? # reply format: chosen label
1
(1: 130 nM, 2: 64 nM)

---

test system: DNA polymerase gamma; assay: Inhibition of human DNA polymerase gamma at 100 uM using calf DNA as substrate by microbeta scintillation counting method relative to control; conditions: human DNA polymerase gamma enzyme, probe calf DNA
reported-metric: inhibition at 100 µM (%)

smiles-input: C[C@@]1(F)[C@H](O)[C@@H](COP(=O)(O)OP(=O)(O)OP(=O)(O)O)O[C@H]1n1cnc2c(=O)[nH]c(N)nc21
endpoint-result: 24.6
--
smiles-input: C[C@@]1(Cl)[C@H](O)[C@@H](COP(=O)(O)OP(=O)(O)OP(=O)(O)O)O[C@H]1n1cnc2c(=O)[nH]c(N)nc21
endpoint-result: 38.4
--
smiles-input: C[C@]1(F)[C@H](n2cnc3c(=O)[nH]c(N)nc32)O[C@](F)(COP(=O)(O)OP(=O)(O)OP(=O)(O)O)[C@H]1O
endpoint-result: 29.8

1. C[C@@]1(O)[C@H](F)[C@@H](COP(=O)(O)OP(=O)(O)OP(=O)(O)O)O[C@H]1n1cnc2c(=O)[nH]c(N)nc21
2. C[C@@]1(O)[C@H](O)[C@@H](COP(=O)(O)OP(=O)(O)OP(=O)(O)O)O[C@H]1n1cnc2c(=O)[nH]c(N)nc21
3. C[C@]1(O)[C@H](n2cnc3c(=O)[nH]c(N)nc32)O[C@](F)(COP(=O)(O)OP(=O)(O)OP(=O)(O)O)[C@H]1O
Order the records, beginning with the lowest inhibition at 100 µM and ending with the highest. Answer format: list of labels, ordered as asked.
2, 3, 1
(2: 7.1%, 3: 37.1%, 1: 81%)
